Reference source: the RepoRT retention time repository (doi:10.1016/j.foodchem.2021.129757)

Assay: RP, Phenomenex Synergi Hydro-RP, 250 × 2 mm, 4 µm, 25 °C, 0.2 mL/min, estimated dead time 2.5 min; A: water + 0.1% formic acid, pH 3; B: acetonitrile + 0.1% formic acid, pH 3; gradient (min/%B) 0/0.5 7/0.5 12/12.5 25/16.3 47/35 48/65 50/65 50.1/0.5
Conditions: stereoisomer not certain
assay-metric: LC retention time (min)

Consider the worked cases shown below.
- O=C(O)Cc1ccc(O)cc1 [4-Hydroxyphenylacetic acid]: 20.4
- O=C(O)CCc1cccc(O)c1 [3-(3-hydroxyphenyl)propanoic acid]: 29.5
- COc1ccc(CC(=O)O)cc1OC: 32.5
- CC1OC(OCC2OC(Oc3c(-c4ccc(O)c(O)c4)oc4cc(O)cc(O)c4c3=O)C(O)C(O)C2O)C(O)C(O)C1O (configuration not stated): 34.1
- COc1ccc(C(=O)O)cc1OC: 33

P = COc1ccc(C=CC(=O)O)cc1OC1OC(C(=O)O)C(O)C(O)C1O (configuration not stated) [Isoferulic acid-3-O-glucuronide]
Q = CC1OC(OCC2OC(Oc3c(-c4ccc(O)c(O)c4)oc4cc(OC5OC(CO)C(O)C(O)C5O)cc(O)c4c3=O)C(O)C(O)C2O)C(O)C(O)C1O (configuration not stated) [Quercetin 3-O-rutinoside-7-O-glucoside]
Input line: // which entry has the larger LC retention time value, P or Q ? Answer = label.
Output line: P
